Assayed system: T1, UNK ZnF1-3 (human, UniProt Q9C0B0 31-174)
T1 sequence: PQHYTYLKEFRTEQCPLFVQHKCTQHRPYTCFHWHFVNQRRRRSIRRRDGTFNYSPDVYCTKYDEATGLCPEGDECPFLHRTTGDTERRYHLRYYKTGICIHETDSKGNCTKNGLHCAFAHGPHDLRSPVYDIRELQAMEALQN
Experiment notes: nsRBNS (natural sequence RNA bind-n-seq); RBNS binding buffer (assumed for nsRBNS): 25 mM Tris pH 7.5, 150 mM KCl, 3 mM MgCl2, 0.01% Triton X-100, 500 ug/ml BSA, 20 U/ml SUPERase-In, 4 C; UNK is unkempt and MSI1 is Musashi-1; names of the RNAs are library labels; protein concentration not given here; high values mean tight binding
Whole data set: some 24,000 sequences, median “enrichment r” near 0.99, cut for the highest 2% near 3.7. Many of the other results were omitted from the sample, so the highest values are more common in it than they were.
Metric name: binding signal (enrichment R)
Enter your answer as a number in enrichment R; do not include the unit.

chr1:32384726:32384727:-_ENSG00000184007_ENST00000602725|perfect_dup|FALSE|FALSE (ssRNA) RNA: GGGAGUUCUACAGUCCGACGAUCAGGAGGAAAUCAAUAAAUCUUGAAAUGUUCCGCAGCAGAAAACAUUAAAAAGACCACUAAAAUGCCUAUUAUUGAUCACUAUUUUCUCUAUUCAACUUGCUUGUUCCUUAGGAAGCUUCUCAACAGAGGAUUGAGCAUCA = 0.842

Recorded binding signal for chr13:9170561:9170562:+_ENSMUSG00000033499_ENSMUST00000091829|mus_hu|FALSE|FALSE (ssRNA) RNA: GGGAGUUCUACAGUCCGACGAUCCACUGGCCCUCAUUCAUCUGCGGGGACGUUCUAGAGAUAUGCACUUACAGACCAGUUACUUAAAAAAAAAAAAAAAAAGCAGAGUUCCCUUAAUUUAGAAAAACUCACUAUAUAUAGCUUCAACAGAGGAUUGAGCAUCA , please? 6.5
